target: binding partner of C5A (XPA23); experiment: Biacore
measured attribute: fold affinity vs original (fold)
Report as a plain number; the unit fold is understood.

Please review the following examples before continuing.
{"binder": "C5A (XPA23) VH S30N (antibody, V domains shown) VH: EVQLLESGGGLVQPGGSLRLSCAASGFTFNKYFMFWVRQAPGKGLEWVSVISPSGGMTRYADSVKGRFTISRDNSKNTLYLQMNSLRAEDTAVYYCARVGYGGNSDYWGQGTLVTVSS VL: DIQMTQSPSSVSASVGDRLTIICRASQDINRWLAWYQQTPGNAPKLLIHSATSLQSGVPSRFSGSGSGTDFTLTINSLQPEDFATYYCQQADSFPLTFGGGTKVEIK", "fold affinity vs original (fold)": 0.15}
{"binder": "C5A (XPA23) VH R59W (antibody, V domains shown) VH: EVQLLESGGGLVQPGGSLRLSCAASGFTFSKYFMFWVRQAPGKGLEWVSVISPSGGMTWYADSVKGRFTISRDNSKNTLYLQMNSLRAEDTAVYYCARVGYGGNSDYWGQGTLVTVSS VL: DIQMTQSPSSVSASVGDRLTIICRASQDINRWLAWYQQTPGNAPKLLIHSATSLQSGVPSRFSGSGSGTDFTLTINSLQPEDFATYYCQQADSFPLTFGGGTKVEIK", "fold affinity vs original (fold)": 0.09}
{"binder": "C5A (XPA23) VH K31F (antibody, V domains shown) VH: EVQLLESGGGLVQPGGSLRLSCAASGFTFSFYFMFWVRQAPGKGLEWVSVISPSGGMTRYADSVKGRFTISRDNSKNTLYLQMNSLRAEDTAVYYCARVGYGGNSDYWGQGTLVTVSS VL: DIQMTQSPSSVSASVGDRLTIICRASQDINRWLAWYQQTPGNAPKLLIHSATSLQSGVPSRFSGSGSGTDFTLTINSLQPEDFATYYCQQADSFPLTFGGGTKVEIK", "fold affinity vs original (fold)": 0.05}
{"binder": "C5A (XPA23) VH S30R (antibody, V domains shown) VH: EVQLLESGGGLVQPGGSLRLSCAASGFTFRKYFMFWVRQAPGKGLEWVSVISPSGGMTRYADSVKGRFTISRDNSKNTLYLQMNSLRAEDTAVYYCARVGYGGNSDYWGQGTLVTVSS VL: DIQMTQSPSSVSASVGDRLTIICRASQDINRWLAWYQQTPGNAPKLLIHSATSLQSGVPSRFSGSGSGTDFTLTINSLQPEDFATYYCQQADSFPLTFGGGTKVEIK", "fold affinity vs original (fold)": 0.1}

Lab note: C5A (XPA23) VH Y107K (antibody, V domains shown) VH: EVQLLESGGGLVQPGGSLRLSCAASGFTFSKYFMFWVRQAPGKGLEWVSVISPSGGMTRYADSVKGRFTISRDNSKNTLYLQMNSLRAEDTAVYYCARVGYGGNSDKWGQGTLVTVSS VL: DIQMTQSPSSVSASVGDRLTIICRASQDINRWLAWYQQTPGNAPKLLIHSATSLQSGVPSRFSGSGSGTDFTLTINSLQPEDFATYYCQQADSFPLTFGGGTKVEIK gave fold affinity vs original of 0.82

Where these numbers come from: patent US20110118447A1
